target: human muscarinic M3 receptor (Homo sapiens); assay: Whole cell β-lactamase reporter assay in CHO cells expressing the hM3 receptor (antagonist activity); conditions: 80 nM carbamyl choline, IC50 converted to Ki by Cheng-Prusoff
Sequence (P20309 whole entry): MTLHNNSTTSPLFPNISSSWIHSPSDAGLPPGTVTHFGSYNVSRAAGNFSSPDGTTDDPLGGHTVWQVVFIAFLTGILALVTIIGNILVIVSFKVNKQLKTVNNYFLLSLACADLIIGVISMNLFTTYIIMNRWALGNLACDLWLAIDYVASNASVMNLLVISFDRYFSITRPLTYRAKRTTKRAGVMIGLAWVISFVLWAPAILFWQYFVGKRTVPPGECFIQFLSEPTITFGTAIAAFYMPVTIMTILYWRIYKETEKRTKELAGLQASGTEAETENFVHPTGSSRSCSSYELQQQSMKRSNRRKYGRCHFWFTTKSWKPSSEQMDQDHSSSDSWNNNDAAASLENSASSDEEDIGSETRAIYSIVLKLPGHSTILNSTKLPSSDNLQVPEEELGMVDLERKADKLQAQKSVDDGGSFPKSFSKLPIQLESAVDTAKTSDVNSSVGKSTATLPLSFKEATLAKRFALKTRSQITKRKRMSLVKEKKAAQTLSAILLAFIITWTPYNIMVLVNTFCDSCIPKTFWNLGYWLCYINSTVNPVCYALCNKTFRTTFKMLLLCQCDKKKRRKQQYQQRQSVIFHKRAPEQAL
pKi: −log10 of the molar value. Structures can show the parent of a compound that is named as a salt.
OBSERVATION TYPE: pKi

A: CC(C)N(CC[C@H](c1ccccc1)c1cc(CCOc2cccc(CCNC[C@H](O)c3ccc(O)c(NS(C)(=O)=O)c3)c2)ccc1O)C(C)C
B: CC(C)N(CC[C@H](c1ccccc1)c1cc(CCOc2ccc(CCNC[C@H](O)c3ccc(O)c(NS(C)(=O)=O)c3)cc2)ccc1O)C(C)C [Example 19, succinate salt]
C: CC(C)N(CC[C@H](c1ccccc1)c1cc(CCOc2ccc(CCNC[C@H](O)c3ccc(O)c(CO)c3)cc2)ccc1O)C(C)C
D: CC(C)N(CC[C@H](c1ccccc1)c1cc(CCCCCOc2ccc(CCNC[C@H](O)c3ccc(O)c(NS(C)(=O)=O)c3)cc2)ccc1O)C(C)C
IN: # order the compounds above by pKi, highest value first Provide the labels, sequenced as the question asks.
OUT: C, B, A, D
